Entry source: ChEMBL document CHEMBL1137411

Activity values, listed per item
test system: MCF7; assay: Repression of cyclinD1 level in MCF7 cells at 2.5 uM relative to control; assay type: functional, Homo sapiens
Report as a plain number; the unit % is understood.

compound	Activity (%)
C=CCOc1c(C)c(C)c2c(c1C)CCC(C)(COc1cccc(/C=C3\SC(=O)NC3=O)c1)O2 (centres undefined)	84
CC(C)=CCOc1c(C)c(C)c2c(c1C)CCC(C)(COc1ccc(/C=C3\SC(=O)NC3=O)cc1F)O2 (centres undefined)	95

Form entry - test system: MCF7; read-out: Activity; compound: CC(C)=CCOc1c(C)c(C)c2c(c1C)CCC(C)(COc1ccc(/C=C3\SC(=O)NC3=O)cc1-c1ccc(F)cc1)O2 (centres undefined)
87

Form entry - test system: MCF7; read-out: Activity; compound: CCOc1cc(/C=C2\SC(=O)NC2=O)ccc1OCC1(C)CCc2c(C)c(OCC=C(C)C)c(C)c(C)c2O1 (centres undefined)
107
